Recorded values, source the supplement of paper PMC13380429.

For each entry below, report its inhibition of SARS-CoV-2 cytopathic effect value.
Test system: Vero E6 infected with SARS-CoV-2
Assay: inhibition of SARS-CoV-2 cytopathic effect; higher = more antiviral protection, active = above 15
Settings: 100 nM; 48 h
Please give a number only; it is taken to be in %.

// query Consider the molecule CCCCCCCCCCCCOS(=O)(=O)O [dodecyl-sulfate] . State its measured inhibition of SARS-CoV-2 cytopathic effect.
// result 1.98

// query Consider the molecule CC(C)c1ccc(CC(=O)N2CCC[C@@H](c3cccc(OC(C)(C)C(=O)O)c3)C2)cc1 . State its measured inhibition of SARS-CoV-2 cytopathic effect.
// result -0.36

// query Consider the molecule CN(C)CCCn1cc(C2=C(c3c[nH]c4ccccc34)C(=O)NC2=O)c2ccccc21 . State its measured inhibition of SARS-CoV-2 cytopathic effect.
// result 1.36

// query Consider the molecule CCS(=O)(=O)CCn1c([N+](=O)[O-])cnc1C [tinidazole] . State its measured inhibition of SARS-CoV-2 cytopathic effect.
// result 1.02

// query Consider the molecule CC(C)c1nc(N(C)S(C)(=O)=O)nc(-c2ccc(F)cc2)c1/C=C/[C@@H](O)C[C@@H](O)CC(=O)O [rosuvastatin] . State its measured inhibition of SARS-CoV-2 cytopathic effect.
// result -2.09

// query Consider the molecule Cc1ccc(/C=N/NC(=O)c2ccccc2Oc2ccccc2)o1 . State its measured inhibition of SARS-CoV-2 cytopathic effect.
// result -0.55

// query Consider the molecule O=C(Nc1ccc([N+](=O)[O-])cc1Cl)c1cc(Cl)ccc1O [niclosamide] . State its measured inhibition of SARS-CoV-2 cytopathic effect.
// result 0.39

// query Consider the molecule CCC(=O)NS(=O)(=O)c1ccc(-c2c(-c3ccccc3)noc2C)cc1 [parecoxib] . State its measured inhibition of SARS-CoV-2 cytopathic effect.
// result 1.66

// query Consider the molecule COc1ccc(-c2cc(=S)ss2)cc1 [anethole-trithione] . State its measured inhibition of SARS-CoV-2 cytopathic effect.
// result 1.29

---

System: Vero E6 infected with SARS-CoV-2
Test: inhibition of SARS-CoV-2 cytopathic effect; higher = more antiviral protection, active = above 15
Settings: 8.33 nM; 48 h
endpoint_name: inhibition of SARS-CoV-2 cytopathic effect

// query Consider the compound CCN(CC)C(=S)SSC(=S)N(CC)CC . State its measured inhibition of SARS-CoV-2 cytopathic effect.
// result 1.79% (inactive)

// query Consider the compound CN(C)CCCn1cc(C2=C(c3c[nH]c4ccccc34)C(=O)NC2=O)c2ccccc21 . State its measured inhibition of SARS-CoV-2 cytopathic effect.
// result 1.35% (inactive)

// query Consider the compound C[C@H]1CO[C@@H]2Cn3cc(C(=O)NCc4ccc(F)cc4F)c(=O)c(O)c3C(=O)N12 . State its measured inhibition of SARS-CoV-2 cytopathic effect.
// result 1.03% (inactive)

// query Consider the compound NC1CCN(c2c(F)cc3c(=O)c(C(=O)O)cn(C4CC4)c3c2Cl)C1 (stereo not drawn) . State its measured inhibition of SARS-CoV-2 cytopathic effect.
// result 0.61% (inactive)

// query Consider the compound CC(C)C[C@H](CN)CC(=O)O . State its measured inhibition of SARS-CoV-2 cytopathic effect.
// result -1.59% (inactive)

// query Consider the compound CC(=O)CC/C=C(\C)CC/C=C(\C)CC/C=C(\C)CCC=C(C)C . State its measured inhibition of SARS-CoV-2 cytopathic effect.
// result 1.34% (inactive)

// query Consider the compound C[C@@H]1CC[C@@]2(NC1)O[C@H]1C[C@H]3[C@@H]4CC=C5C[C@@H](O[C@@H]6O[C@H](CO)[C@@H](O[C@@H]7O[C@@H](C)[C@H](O)[C@@H](O)[C@H]7O)[C@H](O)[C@H]6O[C@@H]6O[C@@H](C)[C@H](O)[C@@H](O)[C@H]6O)CC[C@]5(C)[C@H]4CC[C@]3(C)[C@H]1[C@@H]2C . State its measured inhibition of SARS-CoV-2 cytopathic effect.
// result -0.16% (inactive)

// query Consider the compound C=CC(=O)Nc1cccc(Nc2nc(Nc3ccc(NC4CN(CCF)C4)cc3OC)ncc2C(F)(F)F)c1 . State its measured inhibition of SARS-CoV-2 cytopathic effect.
// result 1.87% (inactive)

// query Consider the compound Cc1cc(C)c2nc(-c3ccccn3)cc(C(=O)Nc3ccc(S(=O)(=O)Nc4onc(C)c4C)cc3)c2c1 . State its measured inhibition of SARS-CoV-2 cytopathic effect.
// result 1.15% (inactive)

// query Consider the compound Cc1cc(/C=C/c2ccc3cc(N(C)C)ccc3[n+]2C)c(C)n1-c1ccccc1 [pyrvinium-pamoate] . State its measured inhibition of SARS-CoV-2 cytopathic effect.
// result -0.84% (inactive)

// query Consider the compound CC(=O)/N=c1/[nH]c(C)c(-c2ccc(Cl)c(S(=O)(=O)NCCO)c2)s1 . State its measured inhibition of SARS-CoV-2 cytopathic effect.
// result -0.02% (inactive)

// query Consider the compound C[C@H](CS)C(=O)N1CCC[C@H]1C(=O)O . State its measured inhibition of SARS-CoV-2 cytopathic effect.
// result 0.97% (inactive)

// query Consider the compound Cc1ncc(NC(=O)c2ccc(CN3CCN(C)CC3)c(C(F)(F)F)c2)cc1Nc1nccc(-c2cccnc2)n1 . State its measured inhibition of SARS-CoV-2 cytopathic effect.
// result -0.34% (inactive)

// query Consider the compound CC1Nc2ccc(Cl)cc2S(=O)(=O)N1 (stereo not drawn) . State its measured inhibition of SARS-CoV-2 cytopathic effect.
// result 1.51% (inactive)

// query Consider the compound O=C1Nc2ccc(Cl)cc2[C@@](C#CC2CC2)(C(F)(F)F)O1 . State its measured inhibition of SARS-CoV-2 cytopathic effect.
// result -1.07% (inactive)

// query Consider the compound Cc1cccc(C)c1NC(=O)CN1CCCC1=O . State its measured inhibition of SARS-CoV-2 cytopathic effect.
// result 0.26% (inactive)

// query Consider the compound S=C=Nc1ccc(N=C=S)cc1 [bitoscanate] . State its measured inhibition of SARS-CoV-2 cytopathic effect.
// result 0.45% (inactive)

// query Consider the compound c1ccc(OCc2ccc(CCCN3CCOCC3)cc2)cc1 . State its measured inhibition of SARS-CoV-2 cytopathic effect.
// result 1.88% (inactive)
